Parameter MIC, tested on S. pneumoniae ATCC 49619, listed per item.

{"molecule": "Cn1cc(NC(=O)c2ccc(F)cc2F)cc1C(=O)Nc1cc(C(=O)Nc2c[nH]c(C(=O)NCCN3CCOCC3)c2)n(C)c1 [Compound C-1]", "system-name": "S. pneumoniae ATCC 49619", "measured-value": "≤ 4 µg/mL"}
{"molecule": "Cn1cc(NC(=O)c2cc(NC(=O)c3cc(NC(=O)c4ccc(F)cc4F)no3)cn2C)cc1C(=O)NCCN1CCOCC1 [Compound E-8]", "system-name": "S. pneumoniae ATCC 49619", "measured-value": "≤ 4 µg/mL"}
{"molecule": "Cn1cc(NC(=O)c2cc(NC(=O)c3cc(NC(=O)c4ccc(Cl)cc4F)c[nH]3)cn2C)cc1C(=O)NCCN1CCOCC1 [Compound A-3]", "system-name": "S. pneumoniae ATCC 49619", "measured-value": "≤ 4 µg/mL"}
{"molecule": "Cn1cc(NC(=O)c2cc(NC(=O)c3cc(NC(=O)c4ccc(Cl)cc4F)c[nH]3)cn2C)cc1C(=O)NCC[N+]1(C)CCOCC1 [Compound A-28]", "system-name": "S. pneumoniae ATCC 49619", "measured-value": "≤ 4 µg/mL"}
{"molecule": "Cn1cc(NC(=O)c2cc(NC(=O)c3cnc(NC(=O)c4ccc(F)cc4F)s3)cn2C)cc1C(=O)NCCN1CCOCC1 [Compound E-9]", "system-name": "S. pneumoniae ATCC 49619", "measured-value": "12 to 32 µg/mL"}

Proceed to the following item.
Task: Recorded MIC for Cn1cc(NC(=O)c2cc(NC(=O)c3ccc(Cl)cc3F)c[nH]2)cc1C(=O)NCCN1CCOCC1 [Compound A-17] , please?
Result: ≤ 4 µg/mL

Each recorded value in this set is attributed to patent US7348427B2.
